- TEST DESCRIPTION: Quantitative High-Throughput drug screen in 47 multiple myeloma cell lines against the NCATS MIPE library collection: MM1S_ATCC cell viability assay (AID 1918980); also: nearly all actives have a fitted effect of over 45% in size
- ASSAY SETUP: MM1S myeloma viability, CellTiter-Glo ATP luminescence, 48 h; series mostly up to 45.8 µM
- Description: PI: Beverly A. Mock Ph.D. Laboratory of Cancer Biology and Genetics, Center for Cancer Research, National Cancer Institute, National Institute of Health, Bethesda, Maryland […] 5; Detector; 425V; Luminescence; Viewlux PerkinElmer. […] 1. […] Briefly, the corresponding myeloma cell lines were screened in 1,536-well plates with 500 cells, 5-uL per well for inhibition of cell viability (assessed by measuring ATP levels with CellTiterGlo). […]
Results filed as inconclusive are left out. Calls of active or inactive are those of the source. Calls follow the shape of the dose curve; as a rule, active = well fitted cell-killing curve with a large enough effect; inconclusive = small, poorly fitted or top-dose-only effect, or effect the other way; inactive = no such curve, though single readings can be large or run the other way.
API: response.call in active, inactive

Req: Record request — test call for CS(=O)(=O)c1cccc(CNc2nc(Nc3ccc4c(c3)CCC(=O)N4)ncc2C(F)(F)F)c1
Resp: active

Req: Note, next up: CCCS(=O)(=O)Nc1ccc(F)c(C(=O)c2c[nH]c3ncc(Cl)cc23)c1F
Resp: inactive

Req: And for CCC(C)n1ncn(-c2ccc(N3CCN(c4ccc(OC[C@H]5CO[C@](Cn6cncn6)(c6ccc(Cl)cc6Cl)O5)cc4)CC3)cc2)c1=O (stereo not given in full) ?
Resp: inactive

Req: Do the same for Cc1ccc(-n2nc(C(C)(C)C)cc2NC(=O)Nc2ccc(OCCN3CCOCC3)c3ccccc23)cc1 please
Resp: active

Req: Proceed to C[C@H](NC(=O)Cc1cc(F)cc(F)c1)C(=O)N[C@@H]1C(=O)N(C)c2ccccc2-c2ccccc21
Resp: active

* * *

- TEST DESCRIPTION: qHTS of pediatric cancer cell lines to identify multiple opportunities for drug repurposing: Confirmatory screen for Saos-2 cells (AID 1347127); also: nearly all actives have a fitted effect of over 60% in size
- ASSAY SETUP: Saos-2 osteosarcoma cell viability; series mostly up to 45.9 µM
Results filed as inconclusive are left out. The source made the active and inactive calls. The call rests on the fitted dose curve; in most records, active means well fitted cell-killing curve with a large enough effect; inconclusive means small, poorly fitted or top-dose-only effect, or effect the other way; inactive means no such curve, though single readings can be large or run the other way.
Choose the fitting class; nothing outside 1 = active, 0 = inactive is accepted.

Req: Test call, this compound: CCN(CC)CCCC(C)Nc1ccnc2cc(Cl)ccc12 (stereo not given)
Resp: 0

Req: Another compound to check: CNCc1ccc(-c2[nH]c3cc(F)cc4c3c2CCNC4=O)cc1
Resp: 0

Req: Again, but for OC(CN1CCC(Cc2ccc(F)cc2)CC1)c1ccc(Cl)cc1 (stereo not given)
Resp: 0

Req: How about C#Cc1cccc(Nc2ncnc3cc(OCCOC)c(OCCOC)cc23)c1 ?
Resp: 0

Req: // repeat for Cn1cnc([N+](=O)[O-])c1Sc1ncnc2nc[nH]c12 and report
Resp: 0

Req: Check Cc1oncc1C(=O)Nc1ccc(C(F)(F)F)cc1 too.
Resp: 0

Req: Also COc1cc(Nc2ncc3c(n2)-c2ccc(Cl)cc2C(c2c(F)cccc2OC)=NC3)ccc1C(=O)O , if possible.
Resp: 1

Req: And then O=C(NOC[C@H](O)CO)c1ccc(F)c(F)c1Nc1ccc(I)cc1F , what is it?
Resp: 0

Req: How about this compound: Cc1c(C)c2c(c(C)c1O)CCC(C)(COc1ccc(CC3SC(=O)NC3=O)cc1)O2 (stereo not given)
Resp: 0

Req: Also, C[C@]1(c2nc3c(C(N)=O)cccc3[nH]2)CCCN1 please.
Resp: 0

Req: How about this compound: NC(=O)c1ccc(I)c([N+](=O)[O-])c1
Resp: 0

Req: And for Cc1cn[nH]c1 ?
Resp: 0

Req: Try the compound Nc1nc2c(ncn2COCCO)c(=O)[nH]1
Resp: 0

Req: Quick one: COc1ccc(-c2ccc3c(N4CCOC[C@H]4C)nc(N4CCOC[C@H]4C)nc3n2)cc1CO
Resp: 1

Req: Next entry: NCCCC(N)(C(=O)O)C(F)F (stereo not given)
Resp: 0

The measured values listed here are drawn from PubChem BioAssay (NCATS).
